target or system: ferroportin fused to green fluorescent protein (ECR293/Fpn-GFP cells) (Mus musculus, UniProt Q9JHI9)
Sequence (Q9JHI9 whole entry, the tested form may be a part): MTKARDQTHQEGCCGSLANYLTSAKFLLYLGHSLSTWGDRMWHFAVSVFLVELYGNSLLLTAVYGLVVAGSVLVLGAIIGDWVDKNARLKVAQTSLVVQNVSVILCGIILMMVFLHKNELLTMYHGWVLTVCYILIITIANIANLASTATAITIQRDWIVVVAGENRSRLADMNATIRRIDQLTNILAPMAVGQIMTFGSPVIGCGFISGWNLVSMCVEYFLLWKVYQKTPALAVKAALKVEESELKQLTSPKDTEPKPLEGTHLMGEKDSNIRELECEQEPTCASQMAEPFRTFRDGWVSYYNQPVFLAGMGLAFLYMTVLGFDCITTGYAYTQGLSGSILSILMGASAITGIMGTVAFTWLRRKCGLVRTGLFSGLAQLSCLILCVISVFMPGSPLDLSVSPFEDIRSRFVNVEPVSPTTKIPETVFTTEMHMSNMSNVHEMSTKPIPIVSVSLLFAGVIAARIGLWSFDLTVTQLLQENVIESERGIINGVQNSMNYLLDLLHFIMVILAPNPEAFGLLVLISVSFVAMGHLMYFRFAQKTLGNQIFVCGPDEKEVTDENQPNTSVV
method: Flow cytometry of ferroportin-GFP internalization and degradation in ECR293/Fpn-GFP cells
Format: cell-based
condition info: concentration eliciting 50% of maximal loss of fluorescence generated by reference Hep25; 24 hours
Square brackets hold non-standard residues; d marks the D form. Peptide text beside a SMILES is read from it. * marks the point of attachment. X3 = NC(=O)C[C@H](N*)C(c1ccccc1)c1ccccc1; Dip = N[C@H](C(=O)O)C(c1ccccc1)c1ccccc1; β3hF = N[C@H](CC(=O)O)Cc1ccccc1; β3hP = O=C(O)C[C@@H]1CCCN1
outcome measure: pEC50
// returns pEC50 (minus log10 of molar concentration), number only

Solved cases (5 shown):
molecule: CC[C@H](C)[C@H](NC(=O)[C@H](CS)NC(=O)[C@@H](NC(=O)[C@@H]1CCCN1C(=O)[C@H](Cc1ccccc1)NC(=O)[C@H](Cc1c[nH]cn1)NC(=O)[C@@H](NC(=O)[C@@H](N)CC(=O)O)[C@@H](C)O)[C@@H](C)CC)C(=O)N[C@@H](Cc1ccccc1)C(=O)N1CCC[C@H]1CC(=O)N1CCC[C@H]1C(=O)N[C@@H](CCCNC(=N)N)C(N)=O [Pr16]
outcome measure: pEC50
experimental result: 7.30
--
molecule: CC[C@H](C)[C@H](NC(=O)[C@H](CS)NC(=O)[C@@H](NC(=O)[C@@H]1CCCN1C(=O)[C@H](Cc1ccccc1)NC(=O)[C@H](Cc1c[nH]cn1)NC(=O)[C@@H](NC(=O)[C@@H](N)CC(=O)O)[C@@H](C)O)[C@@H](C)CC)C(=O)N[C@@H](Cc1ccccc1)C(=O)N1CCC[C@H]1CC(=O)N1CCC[C@H]1C(=O)N[C@@H](CCCCN)C(N)=O [Pr15]
outcome measure: pEC50
experimental result: 6.82
--
molecule: CC[C@H](C)[C@H](NC(=O)[C@H](CS)NC(=O)[C@@H](NC(=O)[C@@H]1CCCN1C(=O)[C@H](Cc1ccccc1)NC(=O)[C@H](Cc1c[nH]cn1)NC(=O)[C@@H](NC(=O)[C@@H](N)CC(=O)O)[C@@H](C)O)[C@@H](C)CC)C(=O)N[C@H](CC(=O)N1CCC[C@@H]1C(=O)N1CCC[C@H]1C(=O)N[C@@H](CCCCN)C(N)=O)Cc1ccccc1 [Pr19] (H-DTHFPICI[β3hF][dP]PK-NH2)
outcome measure: pEC50
experimental result: 6.15
--
molecule: CC[C@H](C)[C@H](NC(=O)[C@H](CS)NC(=O)[C@@H](NC(=O)[C@@H]1CCCN1C(=O)[C@H](Cc1ccccc1)NC(=O)[C@H](Cc1c[nH]cn1)NC(=O)[C@@H](NC(=O)[C@@H](N)CC(=O)O)[C@@H](C)O)[C@@H](C)CC)C(=O)N[C@@H](CC(N)=O)C(c1ccccc1)c1ccccc1 [F9bhDpa] (H-DTHFPICI-X3)
outcome measure: pEC50
experimental result: 7.00
--
molecule: CC[C@H](C)[C@H](NC(=O)[C@H](CS)NC(=O)[C@@H](NC(=O)[C@@H]1CCCN1C(=O)[C@@H](NC(=O)[C@H](Cc1c[nH]cn1)NC(=O)[C@@H](NC(=O)[C@@H](N)CC(=O)O)[C@@H](C)O)C(c1ccccc1)c1ccccc1)[C@@H](C)CC)C(=O)N[C@@H](Cc1ccccc1)C(N)=O [F4Dpa] (H-DTH[Dip]PICIF-NH2; N-terminus assumed)
outcome measure: pEC50
experimental result: 7.52

What value of measured pEC50 is listed for CC[C@H](C)[C@H](NC(=O)[C@H](CS)NC(=O)[C@@H](NC(=O)[C@@H]1CCCN1C(=O)[C@H](Cc1ccccc1)NC(=O)[C@H](Cc1c[nH]cn1)NC(=O)[C@@H](NC(=O)[C@@H](N)CC(=O)O)[C@@H](C)O)[C@@H](C)CC)C(=O)N[C@H](CC(=O)N1CCC[C@@H]1C(=O)N1CCC[C@H]1CC(=O)N[C@@H](CCCNC(=N)N)C(N)=O)Cc1ccccc1 [Pr22] (H-DTHFPICI[β3hF][dP][β3hP]R-NH2) ?
6.22
